Would you mind telling me the reported MIC of each entry?
System: Cunninghamella bertholletiae
Test: Antifungal activity against Cunninghamella bertholletiae UTHSC 04-2581 after 24 hrs by broth microdilution method
Assay type: functional
Settings: UTHSC 04-2581, 24 h

Guide cases for MIC, answers given:
# input // fetch MIC given entry CC[C@H](C)C[C@H](C)CCCCCCCCC(=O)N[C@H]1C[C@@H](O)[C@@H](NCCN)NC(=O)[C@@H]2[C@@H](O)CCN2C(=O)[C@H]([C@H](O)CCN)NC(=O)[C@H]([C@H](O)[C@@H](O)c2ccc(O)cc2)NC(=O)[C@@H]2C[C@@H](O)CN2C(=O)[C@H]([C@@H](C)O)NC1=O
# output > 16 µg/mL

# input // fetch MIC given entry C[C@@H]1[C@H](O)[C@@H](C)/C=C/C=C/C=C/C=C/C=C/C=C/C=C/[C@H](O[C@@H]2O[C@H](C)[C@@H](O)[C@H](N)[C@@H]2O)C[C@@H]2O[C@](O)(C[C@@H](O)C[C@@H](O)[C@H](O)CC[C@@H](O)C[C@@H](O)CC(=O)O[C@H]1C)C[C@H](O)[C@H]2C(=O)O
# output 4 µg/mL

# input // fetch MIC given entry C[C@@H](c1nc(-c2ccc(C#N)cc2)cs1)[C@](O)(Cn1cncn1)c1ccc(F)cc1F
# output > 16 µg/mL

Consider the record given below.
# input // fetch MIC given entry CC[C@@H]([C@H](C)O)n1ncn(-c2ccc(N3CCN(c4ccc(OC[C@@H]5CO[C@@](Cn6cncn6)(c6ccc(F)cc6F)C5)cc4)CC3)cc2)c1=O
# output 0.5 µg/mL
